Source of measurements: BigSolDB 2.1

- experimental_context: in ethanol, 318.15 K
assay_endpoint: solubility (mole fraction)
Lab note: write the figure by itself, no unit.

What the record says about O=C(O)c1ccc(Cl)cc1Cl : solubility (mole fraction) is 0.0849

* * *

- experimental_context: in acetone, 278.15 K
assay_endpoint: solubility (mole fraction)

What the record says about O=C(O)c1ccc(Cl)cc1Cl : solubility (mole fraction) is 0.0359

* * *

- experimental_context: in acetone, 288.15 K
assay_endpoint: solubility (mole fraction)

What the record says about O=C(O)c1ccc(Cl)cc1Cl : solubility (mole fraction) is 0.0439

* * *

- experimental_context: in ethanol, 283.15 K
assay_endpoint: solubility (mole fraction)
Lab note: write the figure by itself, no unit.

What the record says about O=C(O)c1ccc(Cl)cc1Cl : solubility (mole fraction) is 0.0442

* * *

- experimental_context: in acetone, 318.15 K
assay_endpoint: solubility (mole fraction)
Lab note: write the figure by itself, no unit.

What the record says about O=C(O)c1ccc(Cl)cc1Cl : solubility (mole fraction) is 0.0784

* * *

- experimental_context: in toluene, 318.15 K
assay_endpoint: solubility (mole fraction)
Lab note: write the figure by itself, no unit.

What the record says about O=C(O)c1ccc(Cl)cc1Cl : solubility (mole fraction) is 0.00993

* * *

- experimental_context: in toluene, 313.15 K
assay_endpoint: solubility (mole fraction)
Lab note: write the figure by itself, no unit.

What the record says about O=C(O)c1ccc(Cl)cc1Cl : solubility (mole fraction) is 0.00837

* * *

- experimental_context: in n-butanol, 308.15 K
assay_endpoint: solubility (mole fraction)
Lab note: write the figure by itself, no unit.

What the record says about O=C(O)c1ccc(Cl)cc1Cl : solubility (mole fraction) is 0.0746

* * *

- experimental_context: in acetonitrile, 298.15 K
assay_endpoint: solubility (mole fraction)
Lab note: write the figure by itself, no unit.

What the record says about O=C(O)c1ccc(Cl)cc1Cl : solubility (mole fraction) is 0.00702

* * *

- experimental_context: in isopropanol, 273.15 K
assay_endpoint: solubility (mole fraction)
Lab note: write the figure by itself, no unit.

What the record says about O=C(O)c1ccc(Cl)cc1Cl : solubility (mole fraction) is 0.0367

* * *

- experimental_context: in methanol, 273.15 K
assay_endpoint: solubility (mole fraction)
Lab note: write the figure by itself, no unit.

What the record says about O=C(O)c1ccc(Cl)cc1Cl : solubility (mole fraction) is 0.0261

* * *

- experimental_context: in n-butanol, 288.15 K
assay_endpoint: solubility (mole fraction)
Lab note: write the figure by itself, no unit.

What the record says about O=C(O)c1ccc(Cl)cc1Cl : solubility (mole fraction) is 0.0511

* * *

- experimental_context: in acetone, 313.15 K
assay_endpoint: solubility (mole fraction)
Lab note: write the figure by itself, no unit.

What the record says about O=C(O)c1ccc(Cl)cc1Cl : solubility (mole fraction) is 0.0713

* * *

- experimental_context: in n-propanol, 308.15 K
assay_endpoint: solubility (mole fraction)
Lab note: write the figure by itself, no unit.

What the record says about O=C(O)c1ccc(Cl)cc1Cl : solubility (mole fraction) is 0.0695

* * *

- experimental_context: in n-butanol, 283.15 K
assay_endpoint: solubility (mole fraction)

What the record says about O=C(O)c1ccc(Cl)cc1Cl : solubility (mole fraction) is 0.0468

* * *

- experimental_context: in toluene, 278.15 K
assay_endpoint: solubility (mole fraction)

What the record says about O=C(O)c1ccc(Cl)cc1Cl : solubility (mole fraction) is 0.00174
